Target: T1, ECF28_1040
T1 chain: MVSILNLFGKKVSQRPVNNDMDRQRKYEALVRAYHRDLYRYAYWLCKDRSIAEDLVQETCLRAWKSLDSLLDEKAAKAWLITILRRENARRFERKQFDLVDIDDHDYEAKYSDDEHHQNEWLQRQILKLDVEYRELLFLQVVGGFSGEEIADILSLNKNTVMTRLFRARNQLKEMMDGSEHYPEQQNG
VALUE_TYPE: fold repression

- AS22_4450 (protein) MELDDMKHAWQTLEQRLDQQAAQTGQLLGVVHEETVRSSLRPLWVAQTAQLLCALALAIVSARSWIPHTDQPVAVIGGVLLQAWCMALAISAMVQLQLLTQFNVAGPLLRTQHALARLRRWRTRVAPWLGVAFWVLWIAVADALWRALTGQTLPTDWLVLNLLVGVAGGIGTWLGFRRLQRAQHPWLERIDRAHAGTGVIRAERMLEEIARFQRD: 1.4
- AS25_1645 (protein) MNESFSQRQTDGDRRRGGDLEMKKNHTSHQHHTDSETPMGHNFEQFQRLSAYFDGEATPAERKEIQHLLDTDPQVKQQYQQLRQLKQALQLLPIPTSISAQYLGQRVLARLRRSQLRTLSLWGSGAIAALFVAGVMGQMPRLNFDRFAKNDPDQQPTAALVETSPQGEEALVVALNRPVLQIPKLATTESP: 2.95
- AS20_992 (protein) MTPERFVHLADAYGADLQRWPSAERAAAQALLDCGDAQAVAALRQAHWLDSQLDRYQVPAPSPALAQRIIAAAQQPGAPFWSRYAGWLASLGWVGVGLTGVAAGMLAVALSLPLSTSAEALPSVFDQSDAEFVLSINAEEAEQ: 2.12
- AS22_1147 (protein) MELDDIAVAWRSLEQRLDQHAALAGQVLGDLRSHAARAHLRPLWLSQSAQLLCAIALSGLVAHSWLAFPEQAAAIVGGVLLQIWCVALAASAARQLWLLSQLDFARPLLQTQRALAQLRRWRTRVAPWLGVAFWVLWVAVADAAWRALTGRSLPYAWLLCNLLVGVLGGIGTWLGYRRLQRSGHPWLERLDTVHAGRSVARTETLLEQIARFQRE: 1.78
- AS03_1244 (protein) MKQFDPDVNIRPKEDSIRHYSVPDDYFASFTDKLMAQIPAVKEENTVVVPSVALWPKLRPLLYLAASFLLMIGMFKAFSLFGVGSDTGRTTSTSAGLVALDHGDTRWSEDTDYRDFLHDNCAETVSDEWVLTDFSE: 1.68
- AS02_915 (protein) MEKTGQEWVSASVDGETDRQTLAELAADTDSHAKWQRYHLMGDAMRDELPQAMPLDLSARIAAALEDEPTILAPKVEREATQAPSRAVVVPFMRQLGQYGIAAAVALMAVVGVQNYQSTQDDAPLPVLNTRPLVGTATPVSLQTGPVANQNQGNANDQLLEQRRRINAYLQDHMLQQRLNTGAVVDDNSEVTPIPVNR: 2.03
- AS25_1643_cl43 (protein) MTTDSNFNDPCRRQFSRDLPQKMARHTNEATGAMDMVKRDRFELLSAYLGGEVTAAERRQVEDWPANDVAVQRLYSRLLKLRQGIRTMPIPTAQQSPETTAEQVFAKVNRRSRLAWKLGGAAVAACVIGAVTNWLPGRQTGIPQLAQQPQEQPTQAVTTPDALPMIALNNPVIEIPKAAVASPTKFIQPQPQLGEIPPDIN: 1.09
- AS27_4265 (protein) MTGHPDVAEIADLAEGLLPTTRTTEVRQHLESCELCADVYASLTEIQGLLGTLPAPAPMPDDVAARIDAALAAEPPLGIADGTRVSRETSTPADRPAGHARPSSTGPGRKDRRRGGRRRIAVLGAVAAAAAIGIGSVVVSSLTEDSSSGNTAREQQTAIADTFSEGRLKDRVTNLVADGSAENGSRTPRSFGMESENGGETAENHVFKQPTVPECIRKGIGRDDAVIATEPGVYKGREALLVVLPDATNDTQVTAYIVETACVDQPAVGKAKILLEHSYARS: 2.19
- AS11_987 (protein) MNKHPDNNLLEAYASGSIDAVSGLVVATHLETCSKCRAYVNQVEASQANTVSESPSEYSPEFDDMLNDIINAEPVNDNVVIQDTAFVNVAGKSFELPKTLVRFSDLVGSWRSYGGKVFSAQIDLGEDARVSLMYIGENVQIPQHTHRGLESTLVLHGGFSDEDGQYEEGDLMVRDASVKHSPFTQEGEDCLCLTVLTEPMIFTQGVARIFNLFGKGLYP: 2.02
- AS14_1324 (protein) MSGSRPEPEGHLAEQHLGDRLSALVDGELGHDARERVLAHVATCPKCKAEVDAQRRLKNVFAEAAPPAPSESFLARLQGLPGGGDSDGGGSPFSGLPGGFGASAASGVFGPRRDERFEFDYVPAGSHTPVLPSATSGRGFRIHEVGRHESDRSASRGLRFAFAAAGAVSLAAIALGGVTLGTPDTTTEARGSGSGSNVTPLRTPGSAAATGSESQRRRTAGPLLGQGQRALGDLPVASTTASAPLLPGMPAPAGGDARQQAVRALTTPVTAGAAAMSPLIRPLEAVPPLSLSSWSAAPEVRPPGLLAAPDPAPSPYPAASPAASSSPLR: 4.3
- AS37_2513 (protein) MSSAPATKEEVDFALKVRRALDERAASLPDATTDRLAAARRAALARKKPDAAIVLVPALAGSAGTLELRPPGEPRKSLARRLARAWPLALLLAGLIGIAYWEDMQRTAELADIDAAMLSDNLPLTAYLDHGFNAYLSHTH: 2.67

Just for reference, paper PMC3817407 is where these values come from.
